# System: Cryptococcus neoformans
# protocolNotes: Antifungal activity against Cryptococcus neoformans by broth microdilution technique
# Type: functional, organism-based
propertyMeasured: IC50 (µg/mL)
Numbers only here, please. The scale is µg/mL.

CCOC(=O)CSC1=C(Cl)C(=O)c2ccccc2C1=O
10.9
CCOC(=O)C(C)SC1=C(NC(C)(C)C)C(=O)c2ccccc2C1=O (centres undefined)
10.3
CCOC(=O)CSC1=C(NC(C)C)C(=O)c2ccccc2C1=O
11.3
CCOC(=O)C(C)SC1=C(N)C(=O)c2ccccc2C1=O (centres undefined)
12
OC(Cn1cncn1)(Cn1cncn1)c1ccc(F)cc1F
0.46

Look at this molecule and give its reported IC50. CCOC(=O)C(C)SC1=C(Cl)C(=O)c2ccccc2C1=O (centres undefined)
11.5

Entry to check: CCOC(=O)C(C)SC1=C(NN)C(=O)c2ccccc2C1=O (centres undefined)
13.3

Entry to check: Cc1sc2c(=O)c3ccccc3c(=O)c=2n(C)c1O
1.54

Entry to check: CCOC(=O)C(C)SC1=C(NCCO)C(=O)c2ccccc2C1=O (centres undefined)
6.92

Entry to check: C[C@@H]1[C@H](O)[C@@H](C)/C=C/C=C/C=C/C=C/C=C/C=C/C=C/[C@H](O[C@@H]2O[C@H](C)[C@@H](O)[C@H](N)[C@@H]2O)C[C@@H]2O[C@](O)(C[C@@H](O)C[C@@H](O)[C@H](O)CC[C@@H](O)C[C@@H](O)CC(=O)O[C@H]1C)C[C@H](O)[C@H]2C(=O)O
0.04

* * *

# Tested on: Trichophyton benhamiae
# protocolNotes: Antifungal activity against Trichophyton mentagrophytes by broth microdilution technique
# Format: functional, organism-based, Arthroderma benhamiae
Rule: IC50 below 4 µg/mL gives 1. Equal to or above 4 µg/mL gives -1.

Completed entries (count: 2):
CCOC(=O)C(C)SC1=C(NCCc2ccc(OC)c(OC)c2)C(=O)c2ccccc2C1=O (centres undefined)
-1
CCOC(=O)C(C)SC1=C(NC(C)(C)C)C(=O)c2ccccc2C1=O (centres undefined)
1

With those in mind, consider the next compound.
In the record for CCOC(=O)CSC1=C(NC(C)C)C(=O)c2ccccc2C1=O , is IC50 less than 4 µg/mL?
-1

* * *

# Test system: Staphylococcus aureus
# protocolNotes: Antibacterial activity against Staphylococcus aureus by broth microdilution technique
# Assay type: functional, organism-based
# conditionParameters: Staphylococcus aureus
propertyMeasured: MIC (µg/mL)
Numbers only here, please. The scale is µg/mL.

Would you please look over these solved cases?
CCOC(=O)CSC1=C(NC(C)C)C(=O)c2ccccc2C1=O
12.5
CCOC(=O)C(C)SC1=C(NN)C(=O)c2ccccc2C1=O (stereo unspecified)
6.25
CCOC(=O)CSC1=C(NCC(C)C)C(=O)c2ccccc2C1=O
25

Look at this molecule and give its reported MIC. CCOC(=O)C(C)SC1=C(NCCO)C(=O)c2ccccc2C1=O (stereo unspecified)
6.25

Entry to check: CCOC(=O)CSC1=C(NCc2ccccc2)C(=O)c2ccccc2C1=O
12.5

Entry to check: CCOC(=O)C(C)SC1=C(NCCc2ccc(OC)c(OC)c2)C(=O)c2ccccc2C1=O (stereo unspecified)
12.5

* * *

# System: Staphylococcus aureus
# protocolNotes: Antibacterial activity against Staphylococcus aureus by broth microdilution technique
# Assay type: functional, organism-based
# conditionParameters: Staphylococcus aureus; read-out: IC50
propertyMeasured: IC50 (µg/mL)
Numbers only here, please. The scale is µg/mL.

CC1(C)S[C@@H]2[C@H](NC(=O)[C@H](N)c3ccccc3)C(=O)N2[C@H]1C(=O)O
0.74
CCOC(=O)C(C)SC1=C(NC(C)(C)C)C(=O)c2ccccc2C1=O (stereo not drawn)
3.98
CCOC(=O)C(C)SC1=C(NN)C(=O)c2ccccc2C1=O (stereo not drawn)
5.65
CCOC(=O)C(C)SC1=C(NCCc2ccc(OC)c(OC)c2)C(=O)c2ccccc2C1=O (stereo not drawn)
9.52
CCOC(=O)C(C)SC1=C(N)C(=O)c2ccccc2C1=O (stereo not drawn)
6.16

Look at this molecule and give its reported IC50. CCOC(=O)CSC1=C(NC(C)C)C(=O)c2ccccc2C1=O
18.5

Entry to check: CCOC(=O)CSC1=C(Cl)C(=O)c2ccccc2C1=O
6.98

Entry to check: CCOC(=O)C(C)SC1=C(NCCO)C(=O)c2ccccc2C1=O (stereo not drawn)
4.82

Entry to check: CCOC(=O)CSC1=C(Nc2ccccc2)C(=O)c2ccccc2C1=O
11.8
